- Tested on: Plasmodium falciparum
- test_method_notes: GSK_TCMDC: Inhibition of Plasmodium falciparum 3D7 in whole red blood cells, using parasite LDH activity as an index of growth. Test compounds present at 2uM
- Format: functional
endpoint_name: Inhibition (%)
The response must be a number in % with no trailing unit.

[[record]]
molecule = "Cn1cc(C(=O)Nc2cccc(-c3cccc(-c4nc5cc(F)ccc5[nH]4)c3)c2)n(C)c1=O"
test_value = 98

[[record]]
molecule = "COc1ccccc1CCNc1nccc(N[C@@H](Cc2ccccc2)C(=O)NCc2cccs2)n1.O=C(O)C(F)(F)F"
test_value = 90

[[record]]
molecule = "COc1ccc(Nc2nccc(N3CCC(NC(=O)Nc4cccc(C(C)=O)c4)C3)n2)cc1 (centres undefined)"
test_value = 98

[[record]]
molecule = "CN(Cc1ccccc1)C1CCCN(c2cc(NC(=O)c3cccs3)ccn2)C1.O=C(O)C(F)(F)F (centres undefined)"
test_value = 88

[[record]]
molecule = "CN=C(NC)c1cccc(NC(=O)C=Cc2ccc(C=CC(=O)Nc3cccc(C(=NC)NC)c3)cc2)c1.Cl"
test_value = 98

[[record]]
molecule = "Cl.c1ccc2c(Nc3ccc(Oc4ccc(Nc5c6ccccc6nc6ccccc56)cc4)cc3)c3ccccc3nc2c1"
test_value = 100


Could you share which Inhibition value was measured for CCOc1ccc(NC(=O)c2ccc(CN3CCCN(Cc4cccc(O)c4)CC3)cc2)cc1.O=C(O)C(F)(F)F ?
85

Further, for Cc1cc(NC(=O)Nc2cccc(N(C)C)c2)c2ccccc2n1 ?
97

Proceed to COc1ccc(NC(=O)/C=C/c2ccc(Cl)c(Cl)c2)cc1N1CCN(C)CC1
90

* * *

Let's look at some compounds and their measured Inhibition.
- System: Plasmodium falciparum
- test_method_notes: GSK_TCMDC: Inhibition of Plasmodium falciparum 3D7 in whole red blood cells, using parasite LDH activity as an index of growth. Test compounds present at 2uM
- Assay type: functional
Response body: numeric value in %, unit text excluded.

Here's what some known entries look like.
[[record]]
compound = "COc1ccc(S(=O)(=O)NC2CCN(c3ccc(C(F)(F)F)cc3NC(=O)OCC(C)C)CC2)cc1"
endpoint_name = "Inhibition"
test_value = 85

[[record]]
compound = "N#Cc1cncc(-c2nc3c(N4CCC(Cc5ccccc5)CC4)cccc3n2C2CCNC2)c1.O=C(O)C(F)(F)F (centres undefined)"
endpoint_name = "Inhibition"
test_value = 88

[[record]]
compound = "O=C(O)C(F)(F)F.O=S(=O)(/C=C/c1ccccc1)N(Cc1ccc(-c2ccc(CNCCc3ccccc3)cc2)cc1)CC1CCCCN1 (centres undefined)"
endpoint_name = "Inhibition"
test_value = 100


Attention now shifts to the item below.
For COc1cccc2sc(N3CCN(C(=O)c4ccc([N+](=O)[O-])o4)CC3)nc12 , what is its reported Inhibition?
95

* * *

- System: Plasmodium falciparum
- test_method_notes: GSK_TCMDC: Inhibition of Plasmodium falciparum 3D7 in whole red blood cells, using parasite LDH activity as an index of growth. Test compounds present at 2uM
- Type: functional
endpoint_name: Inhibition (%)
Answer in %, number only, no unit symbol.

Known Inhibition results, listed for orientation:
[[record]]
compound = "COc1ccc(CNc2ccnc(-n3cnc4cc(C)c(C)cc43)n2)cc1Cl.O=C(O)C(F)(F)F"
test_value = 100

[[record]]
compound = "Cc1c(NC(=O)COc2ccc(Cl)cc2C(=O)c2cc(F)cc(C(F)(F)F)c2)ccc2ncsc12"
test_value = 86

[[record]]
compound = "COc1cc2nc(N3CCC(CNC(=O)c4ccc(-c5cccc(C#N)c5)cc4)CC3)nc(N)c2cc1OC"
test_value = 100

[[record]]
compound = "COC(=O)C(C)NCC(=O)c1ccccc1.Cl (stereo not drawn)"
test_value = 97

[[record]]
compound = "CNCCNCc1ccc(-c2ccc(-c3nc4cccc(C)c4[nH]3)cc2)cc1.O=C(O)C(F)(F)F"
test_value = 96


Which measured Inhibition value corresponds to CCc1ccc(O)c(-c2cc(C(=O)Nc3cccnc3)[nH]n2)c1 ?
98

What do you get for O=C(c1cc(C(=O)Nc2ccc(F)cc2)c(=O)n(-c2ccc(F)cc2)c1)c1cc(Cl)ccc1O ?
100

// query: Cc1ccc(NC(=O)NC2CCN(c3ccnc4cc(Cl)ccc34)C2)cc1.O=C(O)C(F)(F)F (stereo not drawn)
100

Entry to check: O.O=C1C([N+](=O)[O-])=C(O)c2c(F)cccc21
95

Do the same for O=C(Nc1ccc(C(=O)Oc2cccc3ccccc23)cc1)N[C@@H](Cc1ccc(O)cc1)C(=O)NC1CCN(Cc2ccc(O)cc2)C1.O=C(O)C(F)(F)F (stereo partly drawn) please
87

Record: CC(=O)N1CCC(C(=O)Nc2ccc(-c3cccc(-c4nc5cccc(C)c5[nH]4)c3)cc2)CC1
84

Also need N#Cc1ccc(C(=O)Nc2ccc(Cl)c(N3CCN(CCc4ccccc4)CC3)c2)cc1.O=C(O)C(F)(F)F , thanks.
90

Do the same for O=C(CSc1nc2ccccc2c(=O)n1CC1CCCO1)Nc1cc(C(F)(F)F)ccc1Cl (stereo not drawn) please
97

Ok, now CNC(=O)c1cc(S(=O)(=O)Nc2ccc(OC)cc2)cs1
95

Another: O=C(/C=C/c1ccc(Cl)c(Cl)c1)NCCCCCN1CCC(CCNC(=O)/C=C/c2ccccc2F)CC1
94

Also, CCCCCCCN1CC[C@@H](CCCc2ccnc3ccc(OC)cc23)[C@@H](CNC)C1.O=C(O)C(=O)O please.
100

Now consider Cl.NCc1ccc(Nc2nccc(Nc3ccc(-c4ccccc4)cc3)n2)cc1 .
100

Note, next up: CCn1cnc2c(N3CCCCS3(=O)=O)cc(C(=O)N[C@@H](Cc3ccccc3)[C@H](O)CNC3CCOCC3)cc21
99

* * *

Inhibition listing for selected molecules.
- Tested on: Plasmodium falciparum
- test_method_notes: GSK_TCMDC: Inhibition of Plasmodium falciparum Dd2 in whole red blood cells, using parasite LDH activity as an index of growth. Test compounds present at 2uM
- Type: functional
Please give a number only; it is taken to be in %.

[[record]]
molecule = "Cc1ccc(Nc2ccnc(Nc3ccc(C)c(F)c3)n2)cc1O.Cl"
target_or_system = "Plasmodium falciparum"
endpoint_name = "Inhibition"
test_value = 27

[[record]]
molecule = "Cc1cc(NCc2ccccc2)nc2cc(O)ccc12"
target_or_system = "Plasmodium falciparum"
endpoint_name = "Inhibition"
test_value = 80

[[record]]
molecule = "c1ccc(-c2cccc(-c3ccccn3)n2)nc1"
target_or_system = "Plasmodium falciparum"
endpoint_name = "Inhibition"
test_value = 99

[[record]]
molecule = "Cc1ccc(C)c(S(=O)(=O)NCC2CCN(Cc3ccc(O)cc3)CC2)c1.O=C(O)C(F)(F)F"
target_or_system = "Plasmodium falciparum"
endpoint_name = "Inhibition"
test_value = 57

[[record]]
molecule = "CC(CN1CCN(C)CC1)C(=O)Nc1ccc(-c2ccc(-c3nc4cc(F)ccc4[nH]3)cc2)cc1 (stereo not drawn)"
target_or_system = "Plasmodium falciparum"
endpoint_name = "Inhibition"
test_value = 87


Recorded Inhibition of O=C(O)C(F)(F)F.O=S(=O)(NCCN1CCCC1)c1ccc(-c2ccc(CNC3Cc4ccccc4C3)cc2)cc1 , please.
91

Input Cc1cnc(Nc2ccccc2)nc1NCCC(=O)Nc1ccccc1.O=C(O)C(F)(F)F
7

* * *

- System: Plasmodium falciparum
- test_method_notes: GSK_TCMDC: Inhibition of Plasmodium falciparum 3D7 in whole red blood cells, using parasite LDH activity as an index of growth. Test compounds present at 2uM
- Format: functional
endpoint_name: Inhibition (%)
Just the number in %, nothing appended.

Completed entries (count: 4):
[[record]]
molecule = "O=C(NCCCc1ccccc1)c1csc(C2CCCN(C(=O)c3ccc(O)c(-c4cccc5ccccc45)c3)C2)n1 (configuration not stated)"
endpoint_name = "Inhibition"
scale_unit = "%"
test_value = 97

[[record]]
molecule = "c1ccc(CNc2nc(NCCN3CCCCC3)nc3ccccc23)cc1"
endpoint_name = "Inhibition"
scale_unit = "%"
test_value = 87

[[record]]
molecule = "Cc1cc(Nc2cccc(C#N)c2)nc(Nc2ccccc2C)n1"
endpoint_name = "Inhibition"
scale_unit = "%"
test_value = 95

[[record]]
molecule = "Cc1cccc(Cn2c(C(N)=O)nn(-c3ccc([N+](=O)[O-])cc3C#N)c2=S)c1"
endpoint_name = "Inhibition"
scale_unit = "%"
test_value = 100


Fill in: Inhibition of CN(C)C(=O)c1ccc(CN(Cc2cccc(OC(C)(C)C)c2)Cc2ccc3c(c2)OCCO3)cc1 is ___
96

Param item: Cc1cc(C)c(NC(=O)N2CCCN(CCCCCNC(=O)/C=C/c3ccc(Cl)c(Cl)c3)CC2)c(C)c1
91

What do you get for Cc1cccc(C)c1OC(=O)CSc1nnc(-c2ccccc2O)o1 ?
97

Next molecule: O=C(/C=C/c1ccc(Cl)c(Cl)c1)NCCCCCN1CCC(NC(=O)Nc2ccc(F)cc2F)CC1
100

Another molecule: COc1ccc2nc(N3CCN(C(=O)OC(C)(C)C)CC3)nc(NCCCc3ccccc3)c2c1
100

What would you report for CCCCN1CCN(CCCNc2c3ccccc3nc3ccccc23)CC1.Cl ?
100

Also COc1ccc(-c2nonc2NC(=O)c2ccc(C(C)(C)C)cc2)cc1OC , if possible.
99

Also need CC[C@H](C)CNC(=O)c1cncc(-c2ccc(CNC3Cc4ccccc4C3)cc2)c1.O=C(O)C(F)(F)F , thanks.
100

Queued: Cc1ccc(C(NC(=O)C2CCCCC2)c2ccc3cccnc3c2O)cc1 (configuration not stated)
91

Thanks! And Cl.O=c1cc(NCCNCc2cccc(-c3ccccc3)c2)[nH]c2ccccc12 ?
93

Record: N=C(N)NC(=O)Nc1cc(Cl)c(F)c(Cl)c1
100

And then CCCC(=O)c1cnc2cc(O)ccc2c1Nc1ccccc1C , what is it?
99

And for COc1ccc2[nH]c3ccccc3c(=O)c2c1 ?
87

Now the same for CC1CN(c2cnn(Cc3ccc(NC(=O)Nc4ccc(F)cc4[N+](=O)[O-])cc3)c(=O)c2Cl)CC(C)N1.O=C(O)C(F)(F)F (configuration not stated)
89
